molecular target: (recombinant) catalytic domain of human Bub1 (amino acids 704-1085) (Homo sapiens, UniProt O43683); construct: catalytic domain of human Bub1 (amino acids 704-1085); 6xHis (N); made in house; host or cells: Hi5 insect cells; assay: Equilibrium probe competition assay (TR-FRET kinase binding assay); details: Time 240 min; read-out: IC50 (Assay 5, probe competition)
Examples of compounds with documented IC50 follow.

[
  {
    "Smiles Record": "CCOc1cc(F)c(Cn2nc(-c3ncc(OCCCO)c(Nc4ccnc(NC(C)=O)c4)n3)c3ccccc32)c(F)c1",
    "U": "nM",
    "IC50": 0.16
  },
  {
    "Smiles Record": "CCOc1cc(F)c(Cn2nc(-c3ncc(OCCCOC(=O)[C@H](C)NC(=O)[C@@H](N)CCCCN)c(Nc4ccncc4Cl)n3)c3ccccc32)c(F)c1",
    "U": "nM",
    "IC50": 0.27
  },
  {
    "Smiles Record": "CCOc1cc(F)c(Cn2nc(-c3ncc(OCCCOC(=O)[C@H](C)NC(=O)[C@H](N)CCCCN)c(Nc4ccnc(NC(C)=O)c4)n3)c3ccccc32)c(F)c1",
    "U": "nM",
    "IC50": 0.2
  }
]

----------
test system: pre-induced phospho-histone 2A (kinase activity of Bub1); assay: H2A Abrogation-Assay (cell-based mechanistic assay, pre-treatment with Nocodazole); conditions: Nocodazole 16 h, then test compound 1 h; read-out: Biological Assay 4:2: H2A Abrogation IC50
pIC50: −log10 of the molar value.
Measurement Type: pIC50

[
  {
    "Smiles Record": "CCOc1cc(F)c(Cn2nc(-c3ncc(OCCCO)c(Nc4ccncc4Cl)n3)c3ccccc32)c(F)c1",
    "Numeric Value": 7.24
  },
  {
    "Smiles Record": "CCOc1cc(F)c(Cn2nc(-c3ncc(OCCCO)c(Nc4cc(C)ncc4C)n3)c3ccccc32)c(F)c1",
    "Numeric Value": 7.77
  },
  {
    "Smiles Record": "CCOc1cc(F)c(Cn2nc(-c3ncc(OCCCO)c(Nc4ccncc4C)n3)c3ccccc32)c(F)c1",
    "Numeric Value": 7.77
  },
  {
    "Smiles Record": "CCOc1cc(F)c(Cn2nc(-c3ncc(OCCCO)c(Nc4ccnc(F)c4)n3)c3ccccc32)c(F)c1",
    "Numeric Value": 7.64
  }
]

----------
biological target: (recombinant) catalytic domain of human Bub1 (amino acids 704-1085) (Homo sapiens); construct: catalytic domain of human Bub1 (amino acids 704-1085); 6xHis (N); made in house; host or cells: Hi5 insect cells; assay: Bub1 kinase assay (TR-FRET); assay type: biochemical; details: ATP 10 μM, 60 min reaction, pH 7.5; read-out: Biological Assay 1: Bub1 kinase assay median IC50
pIC50: −log10 of the molar value.
Measurement Type: pIC50

[
  {
    "Molecule": "CCOc1cc(F)c(Cn2nc(-c3ncc(OCCOCCNC(=S)Nc4ccc(-c5c6ccc(=O)cc-6oc6cc(O)ccc56)c(C(=O)O)c4)c(Nc4ccncc4)n3)c3ccccc32)c(F)c1 [Example 5-5-1, reference compound]",
    "Relation Symbol": "=",
    "Numeric Value": 7.68
  },
  {
    "Molecule": "OCCCOc1cnc(-c2nn(Cc3c(F)cc(OCC(F)F)cc3F)c3ccccc23)nc1Nc1ccncc1Cl",
    "Relation Symbol": "=",
    "Numeric Value": 7.85
  },
  {
    "Molecule": "OCCCOc1cnc(-c2nn(Cc3c(F)cc(OCC(F)(F)F)cc3F)c3ccccc23)nc1Nc1ccncc1Cl",
    "Relation Symbol": "=",
    "Numeric Value": 7.89
  },
  {
    "Molecule": "OCCCOc1cnc(-c2nn(Cc3c(F)cc(OCC4CC4)cc3F)c3ccccc23)nc1Nc1ccncc1Cl",
    "Relation Symbol": "=",
    "Numeric Value": 7.96
  },
  {
    "Molecule": "CCOc1cc(F)c(Cn2nc(-c3ncc(OCCCO)c(Nc4ccnc(C)n4)n3)c3ccccc32)c(F)c1",
    "Relation Symbol": "=",
    "Numeric Value": 8.15
  },
  {
    "Molecule": "Cc1cc(Nc2nc(-c3nn(Cc4c(F)cc(OCC5CC5)cc4F)c4ccccc34)ncc2OCCCO)c(C)cn1",
    "Relation Symbol": "=",
    "Numeric Value": 7.82
  },
  {
    "Molecule": "CCOc1cc(F)c(Cn2nc(-c3ncc(OCCCO)c(Nc4ccncn4)n3)c3ccccc32)c(F)c1",
    "Relation Symbol": "=",
    "Numeric Value": 8.42
  },
  {
    "Molecule": "CCOc1cc(F)c(Cn2nc(-c3ncc(OCCCO)c(Nc4cc(NC(C)=O)ncc4C)n3)c3ccccc32)c(F)c1",
    "Relation Symbol": "=",
    "Numeric Value": 7.46
  },
  {
    "Molecule": "CCOc1cc(F)c(Cn2nc(-c3ncc(OCCCO)c(Nc4cc(C)ncc4F)n3)c3ccccc32)c(F)c1",
    "Relation Symbol": "=",
    "Numeric Value": 7.80
  },
  {
    "Molecule": "CCOc1cc(F)c(Cn2nc(-c3ncc(OCCCO)c(Nc4cc(C)nc(C)n4)n3)c3ccccc32)c(F)c1",
    "Relation Symbol": "<",
    "Numeric Value": 4.70
  },
  {
    "Molecule": "CCOc1cc(F)c(Cn2nc(-c3ncc(OCCCO)c(Nc4ccncc4C4CC4)n3)c3ccccc32)c(F)c1",
    "Relation Symbol": "=",
    "Numeric Value": 7.96
  },
  {
    "Molecule": "CCOc1cc(F)c(Cn2nc(-c3ncc(OCCCO)c(Nc4ccncc4Cl)n3)c3ccccc32)c(F)c1",
    "Relation Symbol": "=",
    "Numeric Value": 8.08
  },
  {
    "Molecule": "CCOc1cc(F)c(Cn2nc(-c3ncc(OCCCO)c(Nc4cc(C)ncc4C)n3)c3ccccc32)c(F)c1",
    "Relation Symbol": "=",
    "Numeric Value": 7.68
  },
  {
    "Molecule": "CCOc1cc(F)c(Cn2nc(-c3ncc(OCCCO)c(Nc4ccnc(NC(C)=O)c4)n3)c3ccccc32)c(F)c1",
    "Relation Symbol": "=",
    "Numeric Value": 8.46
  },
  {
    "Molecule": "Cc1nccc(Nc2nc(-c3nn(Cc4c(F)cc(OCC(F)F)cc4F)c4ccccc34)ncc2OCCCO)n1",
    "Relation Symbol": "=",
    "Numeric Value": 7.96
  },
  {
    "Molecule": "Cc1nccc(Nc2nc(-c3nn(Cc4c(F)cc(OCC5CC5)cc4F)c4ccccc34)ncc2OCCCO)n1",
    "Relation Symbol": "=",
    "Numeric Value": 7.64
  },
  {
    "Molecule": "CCOc1cc(F)c(Cn2nc(-c3ncc(OCCCO)c(Nc4ccnc(F)c4)n3)c3ccccc32)c(F)c1",
    "Relation Symbol": "=",
    "Numeric Value": 7.82
  },
  {
    "Molecule": "CCOc1cc(F)c(Cn2nc(-c3ncc(OCCCO)c(Nc4ccnc(NC(C)=O)c4C)n3)c3ccccc32)c(F)c1",
    "Relation Symbol": "=",
    "Numeric Value": 8.04
  },
  {
    "Molecule": "CCOc1cc(F)c(Cn2nc(-c3ncc(OCCCO)c(Nc4ccnc(C)c4)n3)c3ccccc32)c(F)c1",
    "Relation Symbol": "=",
    "Numeric Value": 7.92
  },
  {
    "Molecule": "CCOc1cc(F)c(Cn2nc(-c3ncc(OCCCO)c(Nc4ccncc4C)n3)c3ccccc32)c(F)c1",
    "Relation Symbol": "=",
    "Numeric Value": 8.00
  },
  {
    "Molecule": "CCOc1cc(F)c(Cn2nc(-c3ncc(OCCCO)c(Nc4ccncc4OCC(F)(F)F)n3)c3ccccc32)c(F)c1",
    "Relation Symbol": "=",
    "Numeric Value": 8.24
  },
  {
    "Molecule": "Cc1nccc(Nc2nc(-c3nn(Cc4c(F)cc(OCC(F)(F)F)cc4F)c4ccccc34)ncc2OCCCO)n1",
    "Relation Symbol": "=",
    "Numeric Value": 7.68
  },
  {
    "Molecule": "CC(=O)Nc1cc(Nc2nc(-c3nn(Cc4c(F)cc(OCC(F)(F)F)cc4F)c4ccccc34)ncc2OCCCO)ccn1",
    "Relation Symbol": "=",
    "Numeric Value": 7.72
  },
  {
    "Molecule": "COCCOc1cc(F)c(Cn2nc(-c3ncc(OCCCO)c(Nc4ccncn4)n3)c3ccccc32)c(F)c1",
    "Relation Symbol": "=",
    "Numeric Value": 8.40
  },
  {
    "Molecule": "CCOc1cc(F)c(Cn2nc(-c3ncc(OCCCO)c(Nc4ccnc(NC(=O)C5CC5)c4)n3)c3ccccc32)c(F)c1",
    "Relation Symbol": "=",
    "Numeric Value": 8.10
  }
]
